Molecular target: Sodium-dependent serotonin transporter (Homo sapiens) (UniProt P31645)
Sequence (P31645 whole entry, looked up): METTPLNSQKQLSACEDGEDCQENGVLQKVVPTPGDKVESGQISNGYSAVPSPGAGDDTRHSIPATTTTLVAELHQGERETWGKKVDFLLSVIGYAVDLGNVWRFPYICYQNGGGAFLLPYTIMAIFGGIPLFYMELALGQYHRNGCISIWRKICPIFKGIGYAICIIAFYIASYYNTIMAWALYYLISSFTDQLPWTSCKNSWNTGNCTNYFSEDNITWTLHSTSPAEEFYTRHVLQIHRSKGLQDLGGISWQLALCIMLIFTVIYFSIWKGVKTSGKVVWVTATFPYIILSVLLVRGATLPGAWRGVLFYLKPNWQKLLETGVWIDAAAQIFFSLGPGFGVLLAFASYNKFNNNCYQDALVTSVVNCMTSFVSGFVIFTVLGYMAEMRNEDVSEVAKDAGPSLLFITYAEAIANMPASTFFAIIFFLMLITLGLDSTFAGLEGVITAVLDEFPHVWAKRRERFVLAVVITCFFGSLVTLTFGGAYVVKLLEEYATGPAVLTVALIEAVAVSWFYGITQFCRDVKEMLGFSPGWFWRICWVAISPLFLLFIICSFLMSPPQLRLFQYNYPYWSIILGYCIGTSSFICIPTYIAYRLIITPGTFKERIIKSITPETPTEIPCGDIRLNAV
Assay: Modulation of human SERT expressed in HEK293 cells at 0.1 uM using APP+ as substrate by fluorescence assay relative to control
Type: cell-based
MEASURED_ATTRIBUTE: fold change (FC)
One number for each entry.

{"columns": ["MOLECULE", "fold change (FC)"],
 "data": [
  ["COC1=CC(C)(C)c2cc(OC)c(C)c(OC)c2C1=O", 1.07],
  ["CC(=O)CC/C=C(C)/C=C/[C@H]1C(C)=CC(=O)CC1(C)C", 1.06]
]}

Give fold change (FC) for each of the items listed below.
1. CC(=O)/C=C/C1=C(C)CCCC1(C)C
2. C/C1=C\CC[C@@H](C)CCO[C@@H]2O[C@H](CO[C@@H]3OC[C@](O)(COC1=O)[C@H]3O)[C@@H](O)[C@H](O)[C@H]2O
3. CC(=O)/C=C/C1(O)C(C)(C)CCCC1(C)O (stereo not given)
4. CC(C)CC(=O)O[C@@H]1OC=C(CO[C@@H]2O[C@H](CO)[C@@H](O)[C@H](O)[C@H]2O)C2C[C@H](O)[C@@H](CO)C21 (stereo not given in full)
5. COC(=O)C1=CO[C@@H](O[C@@H]2O[C@H](CO)[C@@H](O)[C@H](O)[C@H]2O)[C@H]2[C@@H](COC(C)=O)CC[C@H]12
6. COC1=CC(C)(C)c2cc(OC)c(C)cc2C1=O

0.989
1.04
0.934
0.975
0.965
0.956

Give fold change (FC) for each of the items listed below.
1. C[C@H]1CC[C@@H]2C(C(=O)O)=CO[C@@H](O[C@@H]3O[C@H](CO)[C@@H](O)[C@H](O)[C@H]3O)[C@H]21
2. CC1=CC(=O)CC(C)(C)[C@@H]1CC[C@@H](C)OC(=O)CC(C)C

[1.05, 1.03]

---

Target: Sodium-dependent serotonin transporter (Homo sapiens) (UniProt P31645)
Assay: Modulation of human SERT expressed in HEK293 cells at 10 uM using APP+ as substrate by fluorescence assay relative to control
Assay type: cell-based
Task for the reader: assign each of the following molecules its reported fold change (FC).
One number for each entry.

Worked set:
{"columns": ["MOLECULE", "TARGET_OR_SYSTEM", "fold change (FC)"],
 "data": [
  ["CC1=CC(=O)CC(C)(C)[C@@H]1CC[C@@H](C)OC(=O)CC(C)C", "Sodium-dependent serotonin transporter (Homo sapiens) (UniProt P31645)", 1.07],
  ["C/C1=C\\CC[C@@H](C)CCO[C@@H]2O[C@H](CO[C@@H]3OC[C@](O)(COC1=O)[C@H]3O)[C@@H](O)[C@H](O)[C@H]2O", "Sodium-dependent serotonin transporter (Homo sapiens) (UniProt P31645)", 1.06],
  ["C[C@H]1CC[C@@H]2C(C(=O)O)=CO[C@@H](O[C@@H]3O[C@H](CO)[C@@H](O)[C@H](O)[C@H]3O)[C@H]21", "Sodium-dependent serotonin transporter (Homo sapiens) (UniProt P31645)", 1.07]
]}

Give fold change (FC) for each of the items listed below.
1. CC(=O)/C=C/C1=C(C)CCCC1(C)C
2. CC(=O)/C=C/C1(O)C(C)(C)CCCC1(C)O (stereo not given)

[1.01, 1.09]

Give fold change (FC) for each of the items listed below.
1. COC1=CC(C)(C)c2cc(OC)c(C)cc2C1=O
2. CC(=O)CC/C=C(C)/C=C/[C@H]1C(C)=CC(=O)CC1(C)C
3. COC1=CC(C)(C)c2cc(OC)c(C)c(OC)c2C1=O
4. CC(C)CC(=O)O[C@@H]1OC=C(CO[C@@H]2O[C@H](CO)[C@@H](O)[C@H](O)[C@H]2O)C2C[C@H](O)[C@@H](CO)C21 (stereo not given in full)

0.942
1.1
1.05
0.933

Requested field: fold change (FC). Item: `COC(=O)C1=CO[C@@H](O[C@@H]2O[C@H](CO)[C@@H](O)[C@H](O)[C@H]2O)[C@H]2[C@@H](COC(C)=O)CC[C@H]12`
0.989
